B1: TPR t1 (parent)
chain: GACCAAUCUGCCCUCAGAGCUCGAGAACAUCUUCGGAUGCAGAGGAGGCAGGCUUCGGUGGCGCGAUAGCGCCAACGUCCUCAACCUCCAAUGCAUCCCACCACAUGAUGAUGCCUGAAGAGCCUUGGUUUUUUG

- Variants of: B1
- Assay remarks: polymerase ribozyme fitness, log enrichment relative to wild type (log ratio); higher = more active; in vitro selection for triplet polymerase activity
Parameter: polymerase ribozyme fitness (log ratio). Scope: all listed entries.
Lab note: jot down the number only; don't add units.

Example results:
Query sequence | polymerase ribozyme fitness (log ratio)
GACCAAUCUGCCCUCAGAGCUCGAGAACAUCUUCGGAGGCAGAGGAUGCAGGCUUCGGUGGCGCGAUAGCGCCAACGUCCUCAACCUCCAAUGCAUCCCACCACAUGAUGAUGCCUGAAAAGCCUUGGUCUUUUG | -1.92
GACCAAUCUGCCCUCAGAGUUCGAGAACAUCUUCGGAUGAAGACGAGGGAGGCUUCGGUGGCGCGAUAGCACCAACGUCCUCAACCUCCAAUGCAUCCCACCACAUGAUGAUGCAUGAGGAGCCUUGGUUUUUUG | -4.83
GACCAAUAUGCCCUCAGAGCUCGAGAAUAUCUUCGGAUGCAGAGGAGCCAGGCUUCUGUGGCGCGAUAGCGCCAACGUCCUCAACCUCCAAUGCAUCCCACCACAUGAUGAUGCCUGAAGAGCCUUCGUUUUUUG | -3.86
GACCAAUCUGCCCUCAGAGGUCGAGAACAUCUUCGGAUGCAGAUGAGGCAGGCUUAGGUGGCGCGAUGGCGCCAACGUCCUCAACCUCCAAUGCAUCACACCACAUGAUGAUGUCUGAAGAGCCUUGGUUUUUUG | -6.77
GACCAAUGUGCCCUCAGAGCUCGAGAACAUCUUCGGAUGCAGAGGAGGCAGGCUUCGGUGGCGCGAUAGCGCCAACGUCCUCAACCUCCAAUGCAUCCCAGCACAUGAUGAUGCCUGAAGAGCCUUGUUUUUUUG | -3.26

Measured polymerase ribozyme fitness (log ratio), "GACCAAUCUGCGCUCAGAGCUCGAGAACAUCUUCGGAUGCAGAGGAGGCAGGCUUCGGUGGCGCGAUAGUGCCAACGUCCUCAACCUCCAAUGCAUCCCACCACAAGAUGAUGCCUGAAGAGCCUUGGUUUUUUG" : 0.277

response.value for "GACCAAUCUGCUCUCAGUGCUCGAGAACAUCUUCGGAUGUAGAGGAGGCAGGCUUCGGUGGCGCGAUAGCGCCAACGUCCUCAACCUCCAAUGCAUCCCACCACACGAUGAUGGCUGAAGAGCCUUGGUUUUUUG" (field: polymerase ribozyme fitness (log ratio)) = -2.23

Every entry's value here was drawn from the RNAGym collection of RNA variant scans (doi:10.1073/pnas.2313332121).
